# Test protocol: UV absorption of the compounds (absorption maximum and specific absorbance)
# Format: physicochemical
# Stated conditions: specific absorbance at λmax
Observable: E^11

Study these solved cases before continuing.
O=C(O)c1ccccc1C(=O)c1ccc(N2CCCC2)cc1O	1167
COC(=O)c1ccccc1C(=O)c1ccc(N2CCCC2)cc1O	1179
CCN(CC)c1ccc(C(=O)c2ccccc2)c(O)c1	1280

Moving on to another compound below.
For the compound shown here, `CCN(CC)c1ccc(C(=O)c2ccccc2C(=O)OC)c(O)c1` , give the reported E^11.
1173

---

# Test protocol: UV absorption of the compounds (absorption maximum and specific absorbance)
# Type: physicochemical
# Stated conditions: UV absorption maximum
Listing of recorded λmax by entry.
Field: numeric (nm). Do not append units.

Study these solved cases before continuing.
O=C(O)c1ccccc1C(=O)c1ccc(N2CCCC2)cc1O	355
CCN(CC)c1ccc(C(=O)c2ccccc2)c(O)c1	359
CCN(CC)c1ccc(C(=O)c2ccccc2C(=O)OC)c(O)c1	354

For the compound shown here, `COC(=O)c1ccccc1C(=O)c1ccc(N2CCCC2)cc1O` , give the reported λmax.
355
